- Test system: 695427-040-R-J1-PDC complex spheroid viability;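 note: viability read after seven days of drug exposure; 100% = DMSO vehicle control viability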
- Test Details: Anticancer human tumor 695427-040-R-J1-PDC patient-derived colon adenocarcinoma cell line growth inhibition [RAS]
- Conditions Used: second compound 3.16 µM; first compound 0.00316 µM; hits give low values
Observation Type: viability, T/C (%)
Give bare numbers, in %.

Please state, for each entry, its recorded viability, T/C.
1. C=CC(=O)N1CCN(c2nc(OCC3CCCN3C)nc3c(F)c(-c4nc(N)cc(C)c4C(F)(F)F)c(Cl)cc23)C(C)C1 (stereo not drawn) + C#Cc1c(F)ccc2cc(O)cc(-c3ncc4c(N5CC6CCC(C5)N6)nc(OCC56CCCN5CC(F)C6)nc4c3F)c12
2. C=CC(=O)Nc1cc(Nc2nccc(-c3cn(C)c4ccccc34)n2)c(OC)cc1N(C)CCN(C)C + C#Cc1c(F)ccc2cc(O)cc(-c3ncc4c(N5CC6CCC(C5)N6)nc(OCC56CCCN5CC(F)C6)nc4c3F)c12
3. O=C(c1ccc(F)c(F)c1Nc1ccc(I)cc1F)N1CC(O)([C@@H]2CCCCN2)C1 + C#Cc1c(F)ccc2cc(O)cc(-c3ncc4c(N5CC6CCC(C5)N6)nc(OCC56CCCN5CC(F)C6)nc4c3F)c12

56.3
57.7
52.2
